Molecular target: hGLP-1R (Homo sapiens, UniProt P43220)
Sequence (P43220 24-463): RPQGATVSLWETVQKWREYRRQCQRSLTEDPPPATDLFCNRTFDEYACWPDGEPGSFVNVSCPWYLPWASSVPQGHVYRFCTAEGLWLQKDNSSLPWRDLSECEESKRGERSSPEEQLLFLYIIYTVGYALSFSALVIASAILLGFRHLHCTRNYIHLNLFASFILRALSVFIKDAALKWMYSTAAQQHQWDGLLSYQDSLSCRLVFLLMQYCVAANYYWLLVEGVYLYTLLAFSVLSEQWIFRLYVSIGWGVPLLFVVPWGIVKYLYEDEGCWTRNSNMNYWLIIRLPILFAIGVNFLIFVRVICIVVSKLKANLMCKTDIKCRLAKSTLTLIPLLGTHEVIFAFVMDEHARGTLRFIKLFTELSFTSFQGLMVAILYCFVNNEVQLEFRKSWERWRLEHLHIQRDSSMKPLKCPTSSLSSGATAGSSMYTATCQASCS
Assay: cell-based or functional assay
Starred links: 1 amine or outer side, 2 acyl side, 3 side chain; linkers in the order of their positions; H or OH if unused. Non-standard residues stand in square brackets, D forms with d. Groups on a side chain read outwards from the residue. No end group written: not given here. *: point of attachment. C20 diacid = O=C(O)CCCCCCCCCCCCCCCCCCC(=O)*; C18 diacid = O=C(O)CCCCCCCCCCCCCCCCC(=O)*; γGlu = O=C(O)[C@H](CCC(=O)[*:2])N[*:1]; NMeY = CN[C@@H](Cc1ccc(O)cc1)C(=O)O; αMeF = C[C@](N)(Cc1ccccc1)C(=O)O; αMeL = CC(C)C[C@](C)(N)C(=O)O; Dap = NC[C@H](N)C(=O)O; AEEA = NCCOCCOCC(=O)O; Aib = CC(C)(N)C(=O)O
Values of Relative cAMP EC50 greater than or equal to 1 nM map to true; values below map to false.

API: above_or_equal(metric=Relative cAMP EC50, cutoff=1 nM) for item YXQGTXTSDYSIXLDKKAQXAFIEYLEEGGPSSGAPPPE (synthetic construct; SITE 2: note = 2-Aminoisobutyric Acid; SITE 6: note = alpha-methyl-2-fluoro-L-phenylalanine; SITE 13: note = alpha-methyl-leucine; SITE 17: note = Lysine is chemically modified through conjugation of the epsilon-amino group of the Lysine side chain with (2-[2-(2-Amino-ethoxy)-et)) [Example 400]
false

API: above_or_equal(metric=Relative cAMP EC50, cutoff=1 nM) for item YXQGTFTSDXSRXLDKKAQXAFIEYLLEXGESSGAPPPSGS (synthetic construct; SITE 2: note = 2-Aminoisobutyric Acid; SITE 10: note = 3-(4-Pyridyl)-L-alanine; SITE 13: note = alpha-methyl-leucine; SITE 17: note = Lysine is chemically modified through conjugation of the epsilon-amino group of the Lysine side chain with (2-[2-(2-Amino-ethoxy)-ethoxy]-acetyl)) [Example 132]
true

API: above_or_equal(metric=Relative cAMP EC50, cutoff=1 nM) for item YXQGTFTSDXSQXLDXKAQXAFIEXLIAXGPSSGAPPPSGSEE (not fully specified; Aib, 4Pal, αMeL, Orn, Me4Pal, αMeY; γGlu-C18 diacid Lys; C-term amide; synthetic construct; SITE 2: note = 2-Aminoisobutyric Acid; SITE 10: note = 3-(4-Pyridyl)-L-alanine; SITE 13: note = alpha-methyl-leucine; SITE 16: note = L-ornithine; SITE 17: note = Lysine is chemically modified through conjugation of the epsilon-amino group of the Lysine side chain with D-Glutami) [Example 1114]
false

API: above_or_equal(metric=Relative cAMP EC50, cutoff=1 nM) for item [NMeY][Aib]QGT[αMeF]TSDYSILLDKIAAK([AEEA-AEEA-γGlu-C20 diacid])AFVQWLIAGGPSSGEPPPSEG-NH2 [Example 300]
true

API: above_or_equal(metric=Relative cAMP EC50, cutoff=1 nM) for item YXQGTXTSDXXIXLDXKAQXXFIEXLSEGGPSSGEPPPE (synthetic construct; SITE 2: note = 2-Aminoisobutyric Acid; SITE 6: note = alpha-methyl-2-fluoro-L-phenylalanine; SITE 10: note = 3-(4-Pyridyl)-L-alanine; SITE 11: note = alpha-methyl-L-serine; SITE 13: note = alpha-methyl-leucine; SITE 16: note = L-ornithine; SITE 17: note = Lysine is chemically mo) [Example 438]
false

API: above_or_equal(metric=Relative cAMP EC50, cutoff=1 nM) for item YXQGTXTSDXXIXLDXKAQXEFIEXLIEGGPSSGAPPPSGGGE (non-natural residues (Aib, αMeF, 4Pal, Orn, Me4Pal); lipidated Lys; C-amide; synthetic construct; SITE 2: note = 2-Aminoisobutyric Acid; SITE 6: note = alpha-methyl-L-phenylalanine; SITE 10: note = 3-(4-Pyridyl)-L-alanine; SITE 11: note = alpha-methyl-L-serine; SITE 13: note = alpha-methyl-leucine; SITE 16: note = L-ornithine; SITE 17: note = Lysine is chemically modified th) [Example 1174]
false

API: above_or_equal(metric=Relative cAMP EC50, cutoff=1 nM) for item Y[Aib]QGTFTSDYSKLLDKK([AEEA-γGlu-C20 diacid])AQ[Aib]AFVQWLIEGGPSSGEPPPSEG-NH2 [Example 316]
false

API: above_or_equal(metric=Relative cAMP EC50, cutoff=1 nM) for item YXQGTFTSDXSQXLDKKAQXAFIEXLIEXGPSSGAPPPSGEE (Aib, 4Pal, αMeL, Me4Pal, acylated K, C-terminal amide; synthetic construct; SITE 2: note = 2-Aminoisobutyric Acid; SITE 10: note = 3-(4-Pyridyl)-L-alanine; SITE 13: note = alpha-methyl-leucine; SITE 17: note = Lysine is chemically modified through conjugation of the epsilon-amino group of the Lysine side chain with (gamma-Glu)2-CO-(CH2)16-CO2H; SITE 20:) [Example 1121]
true

API: above_or_equal(metric=Relative cAMP EC50, cutoff=1 nM) for item YXQGTXTSDXSIXLDKKAQXAFIEYLSEGGPSSGEPPPSGSEE (Aib, αMeF(2F), 4Pal, αMeL, acylated K, C-terminal amide; synthetic construct; SITE 2: note = 2-Aminoisobutyric Acid; SITE 6: note = alpha-methyl-2-fluoro-L-phenylalanine; SITE 10: note = 3-(4-Pyridyl)-L-alanine; SITE 13: note = alpha-methyl-leucine; SITE 17: note = Lysine is chemically modified through conjugation of the epsilon-amino group of the Lysine) [Example 632]
false

API: above_or_equal(metric=Relative cAMP EC50, cutoff=1 nM) for item YXQGTFTSDFSKXLDKKAQXAFIEYLLEXGPSSGEPPPSEG (Aib, αMeL; acylated Lys; C-terminal amide; synthetic construct; SITE 2: note = 2-Aminoisobutyric Acid; SITE 13: note = alpha-methyl-leucine; SITE 17: note = Lysine is chemically modified through conjugation of the epsilon-amino group of the Lysine side chain with (2-[2-(2-Amino-ethoxy)-ethoxy]-acetyl)-(gamma-Glu)-CO-(CH2) 16-CO2H; SITE 20: n) [Example 46]
true

API: above_or_equal(metric=Relative cAMP EC50, cutoff=1 nM) for item Y[Aib]QGTFTSDFS[Dap][αMeL]LDKK([AEEA-γGlu-C18 diacid])AQ[Aib]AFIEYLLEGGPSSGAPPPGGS-NH2 (ends and bridges not checked) [Example 68]
true

API: above_or_equal(metric=Relative cAMP EC50, cutoff=1 nM) for item YXQGTFTSDXSQXLDKKAQXAFIEXLIEXGPSSGAPPPSGE (Aib, 4Pal, αMeL, Me4Pal; acylated K; C-terminal amide; synthetic construct; SITE 2: note = 2-Aminoisobutyric Acid; SITE 10: note = 3-(4-Pyridyl)-L-alanine; SITE 13: note = alpha-methyl-leucine; SITE 17: note = Lysine is chemically modified through conjugation of the epsilon-amino group of the Lysine side chain with (gamma-Glu)2-CO-(CH2)16-CO2H; SITE 20:) [Example 1120]
true

API: above_or_equal(metric=Relative cAMP EC50, cutoff=1 nM) for item YXQGTFTSDFSKXLDKKAQXAFIEYLLAGGPSSGAPPPSGG (Aib, αMeL; acylated Lys; C-terminal amide; synthetic construct; SITE 2: note = 2-Aminoisobutyric Acid; SITE 13: note = alpha-methyl-leucine; SITE 17: note = Lysine is chemically modified through conjugation of the epsilon-amino group of the Lysine side chain with (2-[2-(2-Amino-ethoxy)-ethoxy]-acetyl)-(gamma-Glu)-CO-(CH2) 18-CO2H; SITE 20: n) [Example 12]
true

API: above_or_equal(metric=Relative cAMP EC50, cutoff=1 nM) for item YXQGTFTSDXSQXLDXKAQXQFIEXLIEXGPSSGAPPPSGSEE (non-natural residues; lipidated Lys; C-terminal amide; synthetic construct; SITE 2: note = 2-Aminoisobutyric Acid; SITE 10: note = 3-(4-Pyridyl)-L-alanine; SITE 13: note = alpha-methyl-leucine; SITE 16: note = L-ornithine; SITE 17: note = Lysine is chemically modified through conjugation of the epsilon-amino group of the Lysine side chain with D-Glutami) [Example 1113]
true

API: above_or_equal(metric=Relative cAMP EC50, cutoff=1 nM) for item YXQGTFTSDFSXXLDKKAQXAFIEYLLEGGPSSGAPPPGGSX (synthetic construct; SITE 2: note = 2-Aminoisobutyric Acid; SITE 12: note = L-ornithine; SITE 13: note = alpha-methyl-leucine; SITE 17: note = Lysine is chemically modified through conjugation of the epsilon-amino group of the Lysine side chain with (2-[2-(2-Amino-ethoxy)-ethoxy]-acetyl)-(gamma-Glu)) [Example 66]
true

API: above_or_equal(metric=Relative cAMP EC50, cutoff=1 nM) for item YXQGTXTSDXSILLDKKAQXAFIEYLEEGGPSSGAPPPSGGEE (Aib, alpha-methyl-2F-Phe, 4Pal, lipidated Lys, amide; synthetic construct; SITE 2: note = 2-Aminoisobutyric Acid; SITE 6: note = alpha-methyl-2-fluoro-L-phenylalanine; SITE 10: note = 3-(4-Pyridyl)-L-alanine; SITE 17: note = Lysine is chemically modified through conjugation of the epsilon-amino group of the Lysine side chain with (gamma-Glu)2-CO-(CH2)1) [Example 612]
true

API: above_or_equal(metric=Relative cAMP EC50, cutoff=1 nM) for item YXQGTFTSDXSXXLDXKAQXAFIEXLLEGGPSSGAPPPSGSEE (Aib, 4Pal, Orn, αMeL, αMeY; lysine acylated C18 diacid; amide; synthetic construct; SITE 2: note = 2-Aminoisobutyric Acid; SITE 10: note = 3-(4-Pyridyl)-L-alanine; SITE 12: note = L-ornithine; SITE 13: note = alpha-methyl-leucine; SITE 16: note = L-ornithine; SITE 17: note = Lysine is chemically modified through conjugation of the epsilon-amino group of the Lys) [Example 1064]
true

API: above_or_equal(metric=Relative cAMP EC50, cutoff=1 nM) for item YXQGTXTSDXSIXLDXKAQXEFIEXLAEGGPSSGAPPPSGS (non-natural residues; acylated Lys; C-terminal amide; synthetic construct; SITE 2: note = 2-Aminoisobutyric Acid; SITE 6: note = alpha-methyl-2-fluoro-L-phenylalanine; SITE 10: note = 3-(4-Pyridyl)-L-alanine; SITE 13: note = alpha-methyl-leucine; SITE 16: note = L-ornithine; SITE 17: note = Lysine is chemically modified through conjugation of the epsil) [Example 642]
false
